Test system: SEM cells
Assay: cell viability relative to DMSO control; higher = less cytotoxic
Settings: RPMI 5 mM glucose + 10% FBS; 48 h; 0.19 µM
molecules and their reported cell viability

| smiles.string | assay.target | cell viability, % |
| --- | --- | --- |
| C[C@@H]1CC[C@@]2(CC[C@]3(C)\C(=C/C[C@@H]4[C@@]5(C)C[C@@H](O)[C@H](O)[C@@](C)(CO)[C@@H]5CC[C@@]34C)[C@@H]2[C@H]1C)C(O)=O | SEM cells | 106 |
| CCOC(=O)c1c(CSc2ccccc2)n(C)c2cc(Br)c(O)c(CN(C)C)c12 | SEM cells | 128 |
| CN(C)c1ccc(-c2nc3c(N4CCN(CC(=O)Nc5nccs5)CC4)c(Cl)cnc3[nH]2)cc1 | SEM cells | 124 |
| Cc1n[nH]c2ccc(-c3cncc(OC[C@@H](N)Cc4ccccc4)c3)cc12 | SEM cells | 98 |
